This collection of values is drawn from PubChem BioAssay (NCI).

# Tested on: SK-MEL-2 melanoma
# ASSAY_NOTES: NCI tumour cell line growth inhibition, 48 h
MEASURED_PARAMETER: TGI (µM)
Numeric answer only, unit µM assumed.

>  <CHEMICAL_STRING>
CN(C)c1cc2c(Nc3ccc4c(cnn4Cc4ccccc4)c3)ncnc2cn1

>  <TESTED_ON>
SK-MEL-2 melanoma

>  <OBS_VALUE>
20.9

$$$$

Now look at this one.
// returns reported TGI for input Cc1cc2c3c([n+](C)c4ccc(F)cc4c3c1)-c1cc(F)ccc1N2C
28.6

====

# Test system: OVCAR-3 ovarian
# ASSAY_NOTES: NCI tumour cell line growth inhibition, 48 h; in the data active = GI50 below about 0.43 µM; inactive = the rest
The reply should be one of these categories: active, inactive

Which outcome did this test record for the compound OC(CN1CCCC2CCCCC21)c1cc2ccccc2c2ccccc12 (stereo not given) ?
inactive

Which outcome did this test record for the compound CC(C)(C)C(=O)c1c(C(F)(F)F)n([O-])c2cc(Cl)c(Cl)cc2[n+]1=O ?
active

Which outcome did this test record for the compound CC1=NN(c2cccc(Cl)c2)C(=O)/C1=C\C=C\c1ccccc1 ?
inactive

Which outcome did this test record for the compound CC(C)(O)CCc1cccc(C(=O)c2cnn(-c3ccc(F)cc3)c2N)c1 ?
inactive

Which outcome did this test record for the compound CCN(CC)S(=O)(=O)c1cccc(-c2ccc3c(NC(=O)C4CC4)n[nH]c3c2)c1 ?
inactive
